test system: UACC-257; assay: NCI tumour cell line growth inhibition, 48 h
Active and inactive are the calls of the source. Cut-off read from the data, not from the text of the source: active = GI50 up to about 1.1 µM and inactive = higher.
MEASURED_PROPERTY: GI50

[[record]]
compound = "CCOC(=O)C(=[N+]=[N-])C(=O)CN1C(=O)C2CC(C)=C(C)CC2C1O (stereo unspecified)"
meas_value = "> 100 µM (inactive)"

[[record]]
compound = "O=C1CCCCCCCCCCC1CN1CCOCC1 (stereo unspecified)"
meas_value = "> 100 µM (inactive)"

[[record]]
compound = "C=C[C@@]1(O)CCCC2=C(C(=O)OCC)CC[C@]21C"
meas_value = "> 100 µM (inactive)"

[[record]]
compound = "Cc1ccc2c(ccc3[nH]cc(CNc4ccc(NS(C)(=O)=O)cc4)c32)n1"
meas_value = "19.1 µM (inactive)"

[[record]]
compound = "Nc1ncnc2c1ncn2C1OC(CO)C(O)C1N (stereo unspecified)"
meas_value = "> 100 µM (inactive)"

[[record]]
compound = "Cc1cc(C)nc(SC(C)C(=O)N/N=C/c2ccc(OCc3ccccc3)cc2)n1 (stereo unspecified)"
meas_value = "7.41 µM (inactive)"

[[record]]
compound = "Nc1ccccc1Nc1ccccc1C(=O)[O-].Nc1ccccc1Nc1ccccc1C(=O)[O-].[Zn+2]"
meas_value = "33.7 µM (inactive)"

[[record]]
compound = "CC(C)(C)OC(=O)NC(Cc1ccccc1)C(=S)N1CCCC1 (stereo unspecified)"
meas_value = "89.1 µM (inactive)"

[[record]]
compound = "O=C(O)Cc1cc(=O)[nH]c2c1/C(=N/O)CCC2"
meas_value = "> 100 µM (inactive)"

[[record]]
compound = "O=C1NC2C(CCO)CC=C[C@H]2c2cc3c(cc21)OCO3 (stereo partly specified)"
meas_value = "> 100 µM (inactive)"

[[record]]
compound = "C[C@@H](C[C@@H](O)[C@H](O)C(C)(C)O)[C@H]1CC=C2[C@]3(C)[C@H](O)C[C@H]4C(C)(C)[C@H](O)CC[C@]4(C)[C@H]3CC[C@@]21C"
meas_value = "16.1 µM (inactive)"

